Entry source: the supplement of paper PMC11451515

Tested on: P12-Ichikawa
Experiment: cell viability relative to DMSO control; higher = less cytotoxic
Conditions: RPMI 5 mM glucose + 10% dialyzed FBS; 48 h; 0.00702 µM
// reported cell viability for each item listed
Enter your answer as a number in %; do not include the unit.

Consider the worked cases shown below.
Cn1cc(-c2cnn3c(N)c(Br)c([C@@H]4CCCNC4)nc23)cn1    95.9
COc1cccc2c(NCc3ccccc3)nc(-n3c(N)nc4ccccc43)nc12    111
CN(c1nccc(=O)[nH]1)C1CCN(c2nc3ccccc3n2Cc2ccc(F)cc2)CC1    109

--- query ---
Ask | Bench note: what cell viability did `CCNC(=O)Nc1ccc(-c2nc3c(c(N4CCOC[C@@H]4C)n2)CCN(C2COC2)C3)cc1` show?
Reply | 111

---

System: P12-Ichikawa
Assay: cell viability relative to DMSO control; higher = less cytotoxic
Conditions: HPLM + 10% dialyzed FBS; 48 h; 0.000781 µM
measured-property: cell viability (%)
Enter your answer as a number in %; do not include the unit.

Consider the worked cases shown below.
Cn1cc(-c2cnn3c(N)c(Br)c([C@@H]4CCCNC4)nc23)cn1    96.1
O=C(NCCCNc1nc(Nc2cccc(NC(=O)N3CCCC3)c2)ncc1I)c1cccs1    91.6
CC1(C)Cc2c(sc(NC(=S)NC(=O)c3ccccc3)c2C(=O)O)CO1    99.1
CCCNCC(O)COc1ccccc1C(=O)CCc1ccccc1 (stereo unspecified)    101

Ask | Bench note: what cell viability did `COC1=CC(=CC=C1)C2=CC=C(NC(=O)/C3=C(/CCC3)C(O)=O)C(=C2)F` show?
Reply | 111

---

System: NOMO1
Assay: cell viability relative to DMSO control; higher = less cytotoxic
Details: HPLM + 10% dialyzed FBS; 48 h; 0.00702 µM
measured-property: cell viability

Consider the worked cases shown below.
CN1C2=CC(=O)/C(=N/NC(N)=O)C=C2CC1S(=O)(=O)[O-].[Na+] (configuration not stated)    105%
COC/1=C/[C@@H]2[C@@H]3CC4=C(C(=C(OC)C=C4)O)[C@]2(CCN3C)CC1=O    151%
O=C1CCC[C@@H]2[C@H]3CCC[N+]4([O-])CCC[C@@H](CN12)[C@@H]34 (some centres not stated)    98.9%
CCOc1cc(/C=C2/C(=O)N(c3ccccc3)N=C2C)cc(Cl)c1OCC(=O)OC    93%
O=C([O-])[C@H](CC(=O)N1C[C@H]2CCCC[C@H]2C1)Cc1ccccc1    135%

Ask | // map `CN[C@H]1[C@H](O[C@@H]2[C@H](O[C@@H]3[C@@H](O)[C@@H](O)[C@@H](NC(=N)N)[C@@H](O)[C@H]3NC(=N)N)O[C@H](C)[C@@]2(O)C=O)O[C@@H](CO)[C@@H](O)[C@H]1O` to recorded cell viability (system: NOMO1)
Reply | 118%

Ask | // map `CN(C)CC[C@H](CSc1ccccc1)Nc1ccc([S+](=O)([O-])NC(=O)c2ccc(N3CCN(Cc4ccccc4-c4ccc(Cl)cc4)CC3)cc2)cc1[N+](=O)[O-]` to recorded cell viability (system: NOMO1)
Reply | 125%

---

Test system: NOMO1
Experiment: cell viability relative to DMSO control; higher = less cytotoxic
Conditions: RPMI 5 mM glucose + 10% dialyzed FBS; 48 h; 0.19 µM
measured-property: cell viability (%)
Enter your answer as a number in %; do not include the unit.

CC1=CC=C2\N=C/3N(CC[C@@]3(O)C(=O)C2=C1)C4=CC=CC=C4    92
O=C(NCCO[N+](=O)[O-])c1cccnc1    119

Ask | Bench note: what cell viability did `C=CCc1cc(OC)c(O)c(C(=O)NCCO)c1` show?
Reply | 98.6

Ask | Bench note: what cell viability did `C[C@H](NC(=O)Cc1cc(F)cc(F)c1)C(=O)N[C@@H]1C(=O)N(C)c2ccccc2-c2ccccc21` show?
Reply | 117

Ask | Bench note: what cell viability did CC(Cc1ccc(O)c(O)c1)(NN)C(=O)O (stereo unspecified) show?
Reply | 106

---

System: P12-Ichikawa
Assay: cell viability relative to DMSO control; higher = less cytotoxic
Settings: RPMI 5 mM glucose + 10% FBS; 48 h; 0.569 µM
measured-property: cell viability (%)
Enter your answer as a number in %; do not include the unit.

COc1cccc2c(NCc3ccccc3)nc(-n3c(N)nc4ccccc43)nc12    111
CCNC(=O)Nc1ccc(-c2nc3c(c(N4CCOC[C@@H]4C)n2)CCN(C2COC2)C3)cc1    82.7
Nc1nc(Nc2ccc([S+](N)(=O)[O-])cc2)nn1C(=O)c1c(F)cccc1F    111
Cn1cc(-c2cnn3c(N)c(Br)c([C@@H]4CCCNC4)nc23)cn1    93.8
CN1/C=C(\N=C(NC2=CC=C(C=C2)C(=O)N3CCOCC3)/C1=O)/C4=C(C)C(=CC=C4)NC(=O)C5=CC=C(C=C5)C(C)(C)C    97.9

Ask | Bench note: what cell viability did `CCOC(CN1C(=O)[C@](CC(=O)Nc2ccc(C)cc2)(NC(=O)Nc2ccc(C)cc2)c2ccccc21)OCC` show?
Reply | 105

Ask | Bench note: what cell viability did `N#CC1(c2ccc(NC(=O)c3cccnc3NCc3ccncc3)cc2)CCCC1` show?
Reply | 113

Ask | Bench note: what cell viability did COCCCOc1ccnc(C[S+]([O-])c2nc3ccccc3[nH]2)c1C (configuration not stated) show?
Reply | 135

Ask | Bench note: what cell viability did `CC(C)(C)Cn1c(N)nc2ccc(-c3[nH]c(C(C)(C)C)nc3-c3ccc(F)cc3)nc21` show?
Reply | 83

Ask | Bench note: what cell viability did `NCCCC(O)(P(=O)(O)O)P(=O)(O)O.O.O.O.[Na+]` show?
Reply | 112

Ask | Bench note: what cell viability did `CC[C@H](NC(C)C)[C@H](O)c1ccc(O)c2[nH]c(=O)ccc12` show?
Reply | 108

Ask | Bench note: what cell viability did `CN(c1nccc(=O)[nH]1)C1CCN(c2nc3ccccc3n2Cc2ccc(F)cc2)CC1` show?
Reply | 116

Ask | Bench note: what cell viability did C=C[C@H]1CN2CCC1C[C@@H]2[C@@H](O)c1ccnc2ccccc12 (some centres not stated) show?
Reply | 86.4

Ask | Bench note: what cell viability did `O=C(C[C@@H]1C/C=C\CCC(=O)O[C@H](c2ccccc2)CNC1=O)NCc1ccc(Cl)cc1` show?
Reply | 128

Ask | Bench note: what cell viability did `C[C@H]1[C@H](O)O[C@@H]2O[C@@]3(C)CC[C@H]4[C@H](C)CC[C@@H]1[C@@]24OO3` show?
Reply | 87.9

Ask | Bench note: what cell viability did `Cc1cccc(N(C)C(=S)Oc2ccc3ccccc3c2)c1` show?
Reply | 116

Ask | Bench note: what cell viability did `CCC[C@@H](C=O)NC(=O)[C@H](CC(C)C)NC(=O)[C@H](CC(C)C)NC(=O)OCc1ccccc1` show?
Reply | 121

---

// reported cell viability for each item listed
System: P12-Ichikawa
Assay: cell viability relative to DMSO control; higher = less cytotoxic
Settings: RPMI 5 mM glucose + 10% dialyzed FBS; 48 h; 5.12 µM
Enter your answer as a number in %; do not include the unit.

Consider the worked cases shown below.
NCCCC(O)(P(=O)(O)O)P(=O)(O)O.O.O.O.[Na+]    76.3
Cc1cccc(N(C)C(=S)Oc2ccc3ccccc3c2)c1    103
CCC[C@@H](C=O)NC(=O)[C@H](CC(C)C)NC(=O)[C@H](CC(C)C)NC(=O)OCc1ccccc1    14.7
COC1=CC(=CC=C1)C2=CC=C(NC(=O)/C3=C(/CCC3)C(O)=O)C(=C2)F    92.2
CN1CCN(Cc2ccc(NC(=O)Nc3ccc(Oc4cc(NC(=O)C5CC5)ncn4)cc3)cc2C(F)(F)F)CC1    11.6

Ask | // map CC(=O)Oc1cc2c(s1)CCN(C(C(=O)C1CC1)c1ccccc1F)C2.Cl (stereo not drawn) to recorded cell viability (system: P12-Ichikawa)
Reply | 99.7

Ask | // map COc1ccc(CC2c3cc(OC)c(OC)cc3CC[N+]2(C)CCC(=O)OCCCCCOC(=O)CC[N+]2(C)CCc3cc(OC)c(OC)cc3C2Cc2ccc(OC)c(OC)c2)cc1OC (stereo not drawn) to recorded cell viability (system: P12-Ichikawa)
Reply | 86.2

Ask | // map `CO[C@H]1/C=C/O[C@@]2(C)Oc3c(C)c(O)c4c(O)c(c(/C=N\N5CCN(C6CCCC6)CC5)c(O)c4c3C2=O)NC(=O)/C(C)=C\C=C\[C@H](C)[C@H](O)[C@@H](C)[C@@H](O)[C@@H](C)[C@H](OC(C)=O)[C@@H]1C` to recorded cell viability (system: P12-Ichikawa)
Reply | 13.6

Ask | // map `O=[N+]([O-])c1ccc(Nc2ccccc2-c2ccccc2)c2nonc12` to recorded cell viability (system: P12-Ichikawa)
Reply | 88.7

Ask | // map CCCNCC(O)COc1ccccc1C(=O)CCc1ccccc1 (stereo not drawn) to recorded cell viability (system: P12-Ichikawa)
Reply | 112
